melting point listing for selected molecules.
Value Type: melting point

>>> df
                                   molecule     value_type    recorded_result
0  COc1ccc(Nc2ccc3c(COCc4ccc(C(F)(F)F)cc4)c(C(=O)O)[nH]c3c2)cc1F [Compound 17a]  melting point  134.8 to 136.3 °C
1  O=c1c2cc(N3CCOCC3)ccc2nc(SCc2cc(=O)n3cc(Cl)ccc3n2)n1Cc1ccc2c(c1)OCO2  melting point    239 to 240.1 °C
2  COc1cc(OC)c([C@H]2c3c(oc4ccc(Cl)cc4c3=O)C(=O)N2c2cc(C)on2)cc1OC  melting point    271.4 to 279 °C
3  O=C(/C=C/c1ccc2c(c1)OCO2)C[C@@]1(O)C(=O)N(Cc2ccc(Cl)cc2)c2ccccc21  melting point    147 to 148.2 °C
4  COc1ccc(Nc2ccc3c(COCc4ccc(C(F)(F)F)cc4)c(C(=O)OC(C)C)[nH]c3c2)cc1F [Compound 16a]  melting point  142.3 to 145.6 °C
5  O=C(NC1CCCC1)c1ccc2c(=O)n(Cc3ccco3)c(=O)n(Cc3cccc([N+](=O)[O-])c3)c2c1  melting point  235.3 to 241.2 °C
6  Clc1ccc2c(c1)C(c1ccccc1Cl)=NCc1nnc(CSCc3ccccc3)n1-2  melting point  164.7 to 167.8 °C
7       COc1ccc2[nH]c(C(=O)O)c(CC(=O)O)c2c1  melting point  159.7 to 163.2 °C

The reported measurements were obtained from paper PMC10745497.
